Just for reference, ChEMBL document CHEMBL6134827 is where these values come from.

Tested on: Pseudomonas aeruginosa
Assay: Antimicrobial activity against multidrug resistant Pseudomonas aeruginosa assessed as inhibition of visible microbial growth incubated for 18 hrs by broth microdilution method
Type: functional
Non-standard residues stand in square brackets, D forms with d. Residues, ends and D or L forms follow the SMILES beside them. Groups on a side chain read outwards from the residue. Dab = NCC[C@H](N)C(=O)O
quantity kind: MIC (µM)
# unit: µM | format: bare number

Solved entries:
MIC of `CC(C)C[C@H](NC(=O)CN)C(=O)N[C@@H](CCCNC(=N)N)C(=O)N[C@H](CCCCN)C(=O)N[C@@H](Cc1c[nH]c2ccccc12)C(=O)N[C@@H](CC(C)C)C(=O)N[C@@H](CCCNC(=N)N)C(=O)N[C@@H](CCN)C(=O)N[C@@H](Cc1ccccc1)C(=O)N[C@@H](CCCCN)C(=O)N[C@@H](CCCCN)C(=O)N[C@@H](Cc1ccccc1)C(=O)N[C@@H](Cc1c[nH]c2ccccc12)C(=O)O` on Pseudomonas aeruginosa? 4.5

MIC of CC(C)C[C@H](NC(=O)CN)C(=O)N[C@@H](CCCNC(=N)N)C(=O)N[C@@H](CCCCN)C(=O)N[C@@H](Cc1c[nH]c2ccccc12)C(=O)N[C@@H](CC(C)C)C(=O)N[C@@H](CCCNC(=N)N)C(=O)N[C@@H](CCCCN)C(=O)N[C@@H](Cc1ccccc1)C(=O)N[C@@H](CCCCN)C(=O)N[C@@H](CCN)C(=O)N[C@@H](Cc1ccccc1)C(=O)N[C@@H](Cc1c[nH]c2ccccc12)C(=O)O (H-GLRKWLRKFK[Dab]FW-OH) on Pseudomonas aeruginosa? 4.5

MIC of CC(C)C[C@H](NC(=O)CN)C(=O)N[C@@H](CCCNC(=N)N)C(=O)N[C@@H](CCCCN)C(=O)N[C@@H](Cc1c[nH]c2ccccc12)C(=O)N[C@@H](CC(C)C)C(=O)N[C@@H](CCCNC(=N)N)C(=O)N[C@@H](CCCCN)C(=O)N[C@@H](Cc1ccccc1)C(=O)N[C@@H](CCN)C(=O)N[C@@H](CCCCN)C(=O)N[C@@H](Cc1ccccc1)C(=O)N[C@@H](Cc1c[nH]c2ccccc12)C(=O)O (H-GLRKWLRKF[Dab]KFW-OH) on Pseudomonas aeruginosa? 4.5

***
MIC of CC(C)C[C@H](NC(=O)CN)C(=O)N[C@@H](CCCNC(=N)N)C(=O)N[C@@H](CCCCN)C(=O)N[C@@H](Cc1c[nH]c2ccccc12)C(=O)N[C@@H](CC(C)C)C(=O)N[C@@H](CCCNC(=N)N)C(=O)N[C@@H](CCN)C(=O)N[C@@H](Cc1ccccc1)C(=O)N[C@@H](CCN)C(=O)N[C@@H](CCN)C(=O)N[C@@H](Cc1ccccc1)C(=O)N[C@@H](Cc1c[nH]c2ccccc12)C(=O)O (H-GLRKWLR[Dab]F[Dab][Dab]FW-OH) on Pseudomonas aeruginosa? 4.7

MIC of CC(C)C[C@H](NC(=O)CN)C(=O)N[C@@H](CCCNC(=N)N)C(=O)NCCCC[C@H](N)C(=O)N[C@@H](Cc1c[nH]c2ccccc12)C(=O)N[C@@H](CC(C)C)C(=O)N[C@@H](CCCNC(=N)N)C(=O)N[C@@H](CCCCN)C(=O)N[C@@H](Cc1ccccc1)C(=O)N[C@@H](CCCCN)C(=O)N[C@@H](CCCCN)C(=O)N[C@@H](Cc1ccccc1)C(=O)N[C@@H](Cc1c[nH]c2ccccc12)C(=O)O (H-K([Arg-Leu-Gly])WLRKFKKFW-OH) on Pseudomonas aeruginosa? 8.9

MIC of CC(C)C[C@H](NC(=O)CN)C(=O)N[C@@H](CCCNC(=N)N)C(=O)N[C@@H](CCN)C(=O)N[C@@H](Cc1c[nH]c2ccccc12)C(=O)N[C@@H](CC(C)C)C(=O)N[C@@H](CCCNC(=N)N)C(=O)N[C@@H](CCCCN)C(=O)N[C@@H](Cc1ccccc1)C(=O)N[C@@H](CCCCN)C(=O)N[C@@H](CCCCN)C(=O)N[C@@H](Cc1ccccc1)C(=O)N[C@@H](Cc1c[nH]c2ccccc12)C(=O)O (H-GLR[Dab]WLRKFKKFW-OH) on Pseudomonas aeruginosa? 4.5

----------
Each item that follows carries a reported MIC.
Test system: Pseudomonas aeruginosa
Assay: Antimicrobial activity against multidrug resistant Pseudomonas aeruginosa assessed as inhibition of visible microbial growth incubated for 18 hrs by broth microdilution method
Format: functional
Starred links: 1 amine or outer side, 2 acyl side, 3 side chain; linkers in the order of their positions; H or OH if unused. Non-standard residues stand in square brackets, D forms with d. Residues, ends and D or L forms follow the SMILES beside them. εLys = N[C@@H](CCCCN[*:1])C(=O)[*:2]; Dab = NCC[C@H](N)C(=O)O
Please report the result as a number followed by the unit.

Look up MIC for this compound: CC(C)C[C@H](NC(=O)CN)C(=O)N[C@@H](CCN)C(=O)N[C@@H](CCN)C(=O)N[C@@H](Cc1c[nH]c2ccccc12)C(=O)N[C@@H](CC(C)C)C(=O)N[C@@H](CCN)C(=O)N[C@@H](CCN)C(=O)N[C@@H](Cc1ccccc1)C(=O)N[C@@H](CCN)C(=O)N[C@@H](CCN)C(=O)N[C@@H](Cc1ccccc1)C(=O)N[C@@H](Cc1c[nH]c2ccccc12)C(=O)O (H-GL[Dab][Dab]WL[Dab][Dab]F[Dab][Dab]FW-OH) 10.2 µM

Look up MIC for this compound: CC(C)C[C@H](NC(=O)CN)C(=O)N[C@@H](CCCNC(=N)N)C(=O)N[C@@H](CCCCN)C(=O)N[C@@H](Cc1c[nH]c2ccccc12)C(=O)N[C@@H](CC(C)C)C(=O)N[C@@H](CCCNC(=N)N)C(=O)N[C@@H](CCCCN)C(=O)N[C@@H](Cc1ccccc1)C(=O)N[C@@H](CCCCN)C(=O)NCCCC[C@H](N)C(=O)N[C@@H](Cc1ccccc1)C(=O)N[C@@H](Cc1c[nH]c2ccccc12)C(=O)O (H-GLRKWLRKFK[εLys]FW-OH) 8.9 µM

***
Look up MIC for this compound: CC(C)C[C@H](NC(=O)CN)C(=O)N[C@@H](CCCNC(=N)N)C(=O)N[C@@H](CCN)C(=O)N[C@@H](Cc1c[nH]c2ccccc12)C(=O)N[C@@H](CC(C)C)C(=O)N[C@@H](CCCNC(=N)N)C(=O)N[C@@H](CCN)C(=O)N[C@@H](Cc1ccccc1)C(=O)N[C@@H](CCN)C(=O)N[C@@H](CCN)C(=O)N[C@@H](Cc1ccccc1)C(=O)N[C@@H](Cc1c[nH]c2ccccc12)C(=O)O (H-GLR[Dab]WLR[Dab]F[Dab][Dab]FW-OH) 4.8 µM

Look up MIC for this compound: CC(C)C[C@H](NC(=O)CN)C(=O)N[C@@H](CCCNC(=N)N)C(=O)N[C@@H](CCCCN)C(=O)N[C@@H](Cc1c[nH]c2ccccc12)C(=O)N[C@@H](CC(C)C)C(=O)N[C@@H](CCCNC(=N)N)C(=O)N[C@@H](CCCCN)C(=O)N[C@@H](Cc1ccccc1)C(=O)N[C@@H](CCN)C(=O)N[C@@H](CCN)C(=O)N[C@@H](Cc1ccccc1)C(=O)N[C@@H](Cc1c[nH]c2ccccc12)C(=O)O (H-GLRKWLRKF[Dab][Dab]FW-OH) 4.6 µM

Look up MIC for this compound: CC(C)C[C@H](NC(=O)CN)C(=O)N[C@@H](CCCNC(=N)N)C(=O)N[C@@H](CCCCN)C(=O)N[C@@H](Cc1c[nH]c2ccccc12)C(=O)N[C@@H](CC(C)C)C(=O)N[C@@H](CCCNC(=N)N)C(=O)N[C@@H](CCCCN)C(=O)N[C@@H](Cc1ccccc1)C(=O)NCCCC[C@H](N)C(=O)N[C@@H](CCCCN)C(=O)N[C@@H](Cc1ccccc1)C(=O)N[C@@H](Cc1c[nH]c2ccccc12)C(=O)O (H-GLRKWLRKF[εLys]KFW-OH) 8.9 µM

----------
System: Pseudomonas aeruginosa
Assay: Antimicrobial activity against multidrug resistant Pseudomonas aeruginosa assessed as inhibition of visible microbial growth incubated for 18 hrs by broth microdilution method
Format: functional
Starred links: 1 amine or outer side, 2 acyl side, 3 side chain; linkers in the order of their positions; H or OH if unused. Non-standard residues stand in square brackets, D forms with d. Residues, ends and D or L forms follow the SMILES beside them. εLys = N[C@@H](CCCCN[*:1])C(=O)[*:2]
quantity kind: MIC (µM)
# unit: µM | format: bare number

Look up MIC for this molecule: CC(C)C[C@H](NC(=O)CN)C(=O)N[C@@H](CCCNC(=N)N)C(=O)N[C@@H](CCCCN)C(=O)N[C@@H](Cc1c[nH]c2ccccc12)C(=O)N[C@@H](CC(C)C)C(=O)N[C@@H](CCCNC(=N)N)C(=O)NCCCC[C@H](N)C(=O)N[C@@H](Cc1ccccc1)C(=O)N[C@@H](CCCCN)C(=O)N[C@@H](CCCCN)C(=O)N[C@@H](Cc1ccccc1)C(=O)N[C@@H](Cc1c[nH]c2ccccc12)C(=O)O (H-GLRKWLR[εLys]FKKFW-OH) 17.9
